- System Under Test: recombinant human LTA4 hydrolase (rhLTA4H) (Homo sapiens)
- Sequence (P09960 1-611): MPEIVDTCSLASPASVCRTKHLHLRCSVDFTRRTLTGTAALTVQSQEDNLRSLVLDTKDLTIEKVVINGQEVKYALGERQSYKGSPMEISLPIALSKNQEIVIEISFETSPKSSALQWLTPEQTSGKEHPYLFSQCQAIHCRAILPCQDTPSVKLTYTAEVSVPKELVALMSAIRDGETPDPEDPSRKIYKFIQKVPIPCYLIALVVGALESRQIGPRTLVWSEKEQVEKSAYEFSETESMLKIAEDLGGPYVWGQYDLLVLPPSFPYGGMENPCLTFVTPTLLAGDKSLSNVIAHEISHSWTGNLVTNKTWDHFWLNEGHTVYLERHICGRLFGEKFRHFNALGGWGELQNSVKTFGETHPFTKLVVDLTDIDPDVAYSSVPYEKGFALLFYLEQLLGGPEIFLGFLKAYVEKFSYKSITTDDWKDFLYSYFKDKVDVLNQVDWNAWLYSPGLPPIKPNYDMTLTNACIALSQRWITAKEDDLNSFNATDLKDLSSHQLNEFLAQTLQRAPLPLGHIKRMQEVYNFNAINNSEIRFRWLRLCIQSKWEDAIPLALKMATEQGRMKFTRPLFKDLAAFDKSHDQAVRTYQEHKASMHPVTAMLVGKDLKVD
- Protocol: Recombinant Human LTA4 Hydrolase Assay for LTA4 Hydrolase Inhibitor Activity
- Condition Description: average of results obtained; LTB4 quantified by enzyme-linked immunoassay
Measured Quantity: pKi
pKi here is simply -log10 of the concentration when that concentration is written in mol/L.

Completed entries (count: 3):
>>> df
                                   compound  observed_result
0  O=S(=O)(c1ccsc1)N1CC2CN(Cc3ccc(Oc4nc5ccccc5s4)cc3)CC2C1 (stereo not shown)             5.44
1  CS(=O)(=O)N[C@@H]1C[C@H]2CC[C@@H](C1)N2CCOc1ccc(Oc2nc3cc(Cl)ccc3s2)cc1             6.51
2  NC(=O)N1C[C@@H]2CCN(Cc3ccc(Oc4nc5ccccc5s4)cc3)[C@@H]2C1             7.74

Problem: Please provide the recorded pKi for CS(=O)(=O)N1C[C@H]2C[C@@H]1CN2CCOc1ccc(Oc2nc3cc(F)ccc3s2)cc1 , tested on recombinant human LTA4 hydrolase (rhLTA4H) (Homo sapiens).
Result: 6.89

* * *

As shown below, each of these compounds has a reported pKi value.
- System Under Test: recombinant human LTA4 hydrolase (rhLTA4H) (Homo sapiens, UniProt P09960)
- Protocol: Recombinant Human LTA4 Hydrolase Assay for LTA4 Hydrolase Inhibitor Activity
- Condition Description: average of results obtained; LTB4 quantified by enzyme-linked immunoassay
Notebook: values listed as pKi are -log10 of the concentration (mol/L).

In [3]: df
Out[3]:
                                   compound                         system_under_test  observed_result
0  O=C(CO)N1C[C@@H]2C[C@H]1CN2CCc1ccc(Oc2nc3ccccc3s2)cc1  recombinant human LTA4 hydrolase (rhLTA4H) (Homo sapiens, UniProt P09960)             7.74

Problem: Which measured pKi value corresponds to O=C(c1ccoc1)N1CC2CN(Cc3ccc(Oc4nc5ccccc5s4)cc3)CC2C1 (centres unmarked) ?
Result: 7.06

Problem: Need pKi of CC(=O)N1[C@@H]2CC[C@H]1C[C@H](NCCc1ccc(Oc3nc4ccc(F)cc4s3)cc1)C2 , thanks.
Result: 7.16

Problem: // returns reported pKi for input CC(=O)N1C2CCC1CN(Cc1ccc(Oc3nc4ccccc4s3)cc1)C2
Result: 7.04

Problem: Can you look up the measured pKi of CC(=O)N[C@@H]1C[C@H]2CC[C@@H](C1)N2CCc1ccc(Oc2nc3cccc(F)c3s2)cc1 for me?
Result: 6.94

Problem: Data request, read-out pKi, for NC(=O)N1C[C@H]2C[C@@H]1CN2CCOc1ccc(Oc2nc3cc(Cl)ccc3s2)cc1
Result: 6.37

Problem: Entry Cc1ccc2nc(Oc3ccc(CCN4C[C@H]5C[C@@H]4CN5S(C)(=O)=O)cc3)sc2c1 has what pKi?
Result: 6.21

Problem: Quick one: pKi for CS(=O)(=O)N1CCC2CN(Cc3ccc(Oc4nc5ccccc5s4)cc3)CC21 (centres unmarked) ?
Result: 6.56
